Where these numbers come from: patent US20190071416A1

Target: SMYD3 (Homo sapiens, UniProt Q9H7B4)
Assay: SMYD3 biochemical assay (MTase-Glo, MAP3K2 peptide substrate)
Conditions: Table 3; MTase assay, MAP3K2 peptide substrate; read-out: IC50
endpoint.label: IC50 (nM)

Solved entries (count: 5):
>>> df
                                   compound  endpoint_label  measured_value
0  C#Cc1cccc(-c2cc(Cl)c3ccc(C(=O)N4CCN(C(=O)OCCC)[C@H](C)C4)cc3n2)c1 [B071]            IC50            1300
1  CCCOC(=O)N1CCN(C(=O)c2ccc3c(Cl)c4c(nc3c2)CC(c2ccc(F)cn2)CC4)[C@H](C)C1 (some centres unmarked) [A106]            IC50              41
2  CCCOC(=O)N1CCN(C(=O)c2ccc3c(Cl)cc(-c4cscn4)nc3c2)CC1 [B153]            IC50            1130
3  CCCOC(=O)N1CCN(C(=O)c2ccc3c(Cl)cc(-c4cccc(CC)c4)nc3c2)CC1 [B067]            IC50            2100
4  CCCOC(=O)N1CCN(C(=O)c2ccc3c(Cl)c4c(nc3c2)CCCC4)[C@@H](C)C1 [A010]            IC50             190

[a] CCCOC(=O)N1CCN(C(=O)c2ccc3c(Cl)cc(C4CC4)nc3c2)CC1 [B125]
[b] CCCOC(=O)N1CCN(C(=O)c2ccc3c(Cl)cc(-c4ccc(C(C)(C)O)cc4)nc3c2)C[C@@H]1C [B270]
Q: Thinking about recorded IC50 values, which is higher, a or b ? Label of pick, please.
Result: a
(a: 560 nM, b: 16 nM)

[P] CCCOC(=O)N1CCN(C(=O)c2ccc3c(Cl)cc(-c4ccc5[nH]c(C)nc5c4)nc3c2)CC1 [B222]
[Q] CCCOC(=O)N1CCN(C(=O)c2ccc3c(Cl)c4c(nc3c2)CC(c2ccnc(C#N)c2)CC4)C[C@H]1C (some centres unmarked) [A140]
Q: Of the pair P and Q , name the member with the lesser recorded IC50. Kindly state the label of the option you pick.
Result: P

[I] CCCOC(=O)N1CCN(C(=O)c2ccc3c(Cl)c4c(nc3c2)CC(CCN(C)C)CC4)[C@H](C)C1 (some centres unmarked) [A120]
[II] CCCOC(=O)N1CCN(C(=O)c2ccc3c(Cl)c(C)c(-c4cccc(C)c4)nc3c2)CC1 [B028]
Q: When their IC50 values are compared, which is larger, I or II ? Respond using the label that marks the chosen record.
Result: II
(II: 1100 nM, I: 120 nM)

[A] CCCOC(=O)N1CCN(C(=O)c2ccc3c(Cl)c(F)c(-c4ccn(C)c4)nc3c2)CC1 [B262]
[B] CCCOC(=O)N1CCN(C(=O)c2ccc3c(Cl)cc(-c4ccc(F)c(C)c4)nc3c2)CC1 [B068]
Q: // pick min by IC50: A , B Select an item and report its label.
Result: A

###

Biological target: SMYD3 (Homo sapiens, UniProt Q9H7B4)
Assay: SMYD3 biochemical assay (MTase-Glo, MAP3K2 peptide substrate)
Conditions: Table 3; MTase assay, MAP3K2 peptide substrate; read-out: IC50
pIC50: −log10 of the molar value.
endpoint.label: pIC50

A selection of reference data follows.
>>> print(df.to_string())
                         compound_structure  measured_value
0  CCCOC(=O)N1CCN(C(=O)c2ccc3c(Cl)cc(-c4ccc5nn[nH]c5c4)nc3c2)CC1            6.44
1  CCCOC(=O)N1CCN(C(=O)c2ccc3c(Cl)cc(-c4ccc5nn(C)cc5c4)nc3c2)C[C@@H]1C            6.59

[P] CCCOC(=O)N1CCN(C(=O)c2ccc3c(Cl)cc(-c4cnc5[nH]ccc5c4)nc3c2)C[C@H]1C
[Q] CCCOC(=O)N1CCN(C(=O)c2ccc3c(Cl)cc(-c4ccc(C(C)(C)CN)cc4)nc3c2)CC1
Q: Quick check, higher pIC50 between P and Q ? Respond with the label that goes with your answer.
Result: Q
(Q: 7.89, P: 6.77)

###

Target: SMYD3 (Homo sapiens, UniProt Q9H7B4)
Sequence (Q9H7B4 1-428): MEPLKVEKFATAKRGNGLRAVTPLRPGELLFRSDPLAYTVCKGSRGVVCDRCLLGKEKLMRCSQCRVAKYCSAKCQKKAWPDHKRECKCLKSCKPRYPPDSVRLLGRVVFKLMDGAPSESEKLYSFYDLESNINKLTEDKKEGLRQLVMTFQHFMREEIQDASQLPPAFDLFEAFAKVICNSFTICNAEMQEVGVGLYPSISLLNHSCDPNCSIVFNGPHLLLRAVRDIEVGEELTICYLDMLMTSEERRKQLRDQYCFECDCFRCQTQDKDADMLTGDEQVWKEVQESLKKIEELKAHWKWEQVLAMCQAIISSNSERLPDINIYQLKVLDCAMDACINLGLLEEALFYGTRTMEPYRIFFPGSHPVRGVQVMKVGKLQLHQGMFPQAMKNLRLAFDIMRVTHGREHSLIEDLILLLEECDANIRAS
Experiment: SMYD3 biochemical assay (MTase-Glo, MAP3K2 peptide substrate)
Settings: Table 3; MTase assay, MAP3K2 peptide substrate; read-out: IC50
pIC50: −log10 of the molar value.
endpoint.label: pIC50

The cases that follow already have their pIC50 on record.
>>> print(df.to_string())
                                   compound  measured_value
0  CCCOC(=O)N1CCN(C(=O)c2ccc3c(Cl)cc(-c4ccc(COCCOC)cc4)nc3c2)CC1            6.10
1  CCCOC(=O)N1CCN(C(=O)c2ccc3c(Cl)c4c(nc3c2)CCC(CC(=O)OC)C4)[C@@H](C)C1 (some centres unmarked)            6.92
2  CCCOC(=O)N1CCN(C(=O)c2ccc3c(Cl)cc(-c4ccc(N5CCCC5)cc4)nc3c2)CC1            6.10
3  CCCOC(=O)N1CCN(C(=O)c2ccc3c(Cl)cc(-c4cnc(N)nc4)nc3c2)CC1            6.06
4  CCCOC(=O)N1CCN(C(=O)c2ccc3c(Cl)c4c(nc3c2)CCCC4)CC1CCO (centres unmarked)            5.57
5  CCCOC(=O)N1CCN(C(=O)c2ccc3c(Cl)cc(-c4cccc(C(=O)N(C)C)c4)nc3c2)CC1            6.28

[1] CCCOC(=O)N1CCN(C(=O)c2ccc3c(Cl)c4c(nc3c2)CCCC4)[C@H](C)C1
[2] CCCOC(=O)N1CCN(C(=O)c2ccc3c(Cl)c4c(nc3c2)CC(c2ccnc(C)c2)CC4)CC1 (centres unmarked)
Q: Which shows the larger pIC50 value: 1 or 2 ? Indicate your choice by writing its label.
Result: 2

[A] CCCOC(=O)N1CC2CCC(C1)N2C(=O)c1ccc2c(Cl)c3c(nc2c1)CCCC3
[B] CCCOC(=O)N1CCN(C(=O)c2ccc3c(Cl)cc(-c4ccc(N)cc4)nc3c2)CC1
Q: Between these two entries, A and B , state which has the higher pIC50. # respond with the chosen item's label
Result: B

[1] CCCOC(=O)N1CC(C)N(C(=O)c2ccc3c(Cl)c4c(nc3c2)CCCC4)CC1C (centres unmarked)
[2] CCCOC(=O)N1CCN(C(=O)c2ccc3c(Cl)cc(-c4cc(F)c(C(N)=O)c(F)c4)nc3c2)CC1
[3] CCCOC(=O)N1CC2CC(C1)N2C(=O)c1ccc2c(Cl)c3c(nc2c1)CCCC3
[4] CCCOC(=O)N1CCN(C(=O)c2ccc3c(Cl)c4c(nc3c2)CCCC4C#N)CC1 (centres unmarked)
Q: Ascending sort, pIC50. Please, when replying, give the labels in the order that was requested.
Result: 4, 3, 2, 1
(4: 5.49, 3: 6.00, 2: 6.31, 1: 6.54)

[1] CCCOC(=O)N1CCN(C(=O)c2ccc3c(Cl)c4c(nc3c2)CCCC4)CC1C (centres unmarked)
[2] CCCOC(=O)N1CCN(C(=O)c2ccc3c(Cl)cc(-c4ccc(F)c(OC)c4)nc3c2)CC1
[3] CCCOC(=O)N1CCN(C(=O)c2ccc3c(Cl)cc(-c4ccc5[nH]ncc5c4)nc3c2)C[C@@H]1C
[4] CCCOC(=O)N1CCN(C(=O)c2ccc3c(Cl)cc(-c4cnn(C5COC5)c4)nc3c2)C[C@@H]1C
Q: Order the entries by their reported pIC50, beginning at the minimum. Dear reader, please state the labels in the requested order.
Result: 2, 1, 3, 4

[a] CCCOC(=O)N1CCN(C(=O)c2ccc3c(Cl)c4c(nc3c2)CC(CN)CC4)[C@@H](C)C1 (some centres unmarked)
[b] CCCOC(=O)N1CCN(C(=O)c2ccc3c(Cl)c4c(nc3c2)CC(c2cccnc2)CC4)CC1 (centres unmarked)
Q: For the two items a and b , which reports the higher pIC50 value? Your choice should be expressed through its label.
Result: a
